Target: T1, mouse Ang2 (construct not stated) (mouse, UniProt O35608 19-496, limits assumed)
T1 construct: also called mAng2
T1 sequence (looked up): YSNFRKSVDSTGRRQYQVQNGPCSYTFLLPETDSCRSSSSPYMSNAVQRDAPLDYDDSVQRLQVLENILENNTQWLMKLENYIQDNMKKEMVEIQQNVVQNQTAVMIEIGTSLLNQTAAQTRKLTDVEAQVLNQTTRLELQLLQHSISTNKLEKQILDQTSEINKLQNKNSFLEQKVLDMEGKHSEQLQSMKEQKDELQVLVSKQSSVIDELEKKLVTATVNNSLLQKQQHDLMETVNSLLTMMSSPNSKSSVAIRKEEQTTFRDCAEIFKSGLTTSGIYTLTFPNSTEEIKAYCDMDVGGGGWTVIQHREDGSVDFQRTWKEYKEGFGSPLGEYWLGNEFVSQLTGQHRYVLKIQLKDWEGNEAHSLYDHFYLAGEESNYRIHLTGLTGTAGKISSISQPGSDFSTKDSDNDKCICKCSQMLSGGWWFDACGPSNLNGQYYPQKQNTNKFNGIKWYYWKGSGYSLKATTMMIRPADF
Assay: competition ELISA: antibody preincubated with mAng2, binding to coated mouse Tie2-Fc
Measured Attribute: IC50
Value and unit, in that order.

// Input: No. 41 anti-Ang2 antibody (IgG) (antibody, V domains shown, IgG form: VH cloned into Invivogen pfusess-hchg1, VL into Invivogen pfuse2ss-hclk; also called 2B2) VH: QVQLVESGGGLVQPGGSLRLSCEASGFAFGRYEMNWVRQAPGKGLEWIAYIDTGGGAKVYADSVKGRFTISRDDSKNSLYLQMNSLRAEDTAVYYCTTEGLMNGLHFDMWGQGTMITVSS VL: DIQMTQSPSTLSASVGDRVAITCRASQAISTWLAWYQQKPGKAPKLLIYTASTLESGVPSRFSGSGSGTDFTLTINSLQPDDFATYYCQQLNSYPYTFGGGTKVEIKR . Output its IC50 only.
3.98 nM

// Input: No. 46 anti-Ang2 antibody (IgG) (antibody, V domains shown, IgG form: VH cloned into Invivogen pfusess-hchg1, VL into Invivogen pfuse2ss-hclk; also called 3C6) VH: QVQLVESGGGLVQPGRSLRLSCAASGFTFDDCAMHWVRQAPGKGLEWVSGISGNSKNVAYADSVKGRFSISRDDAKNSLYLQMNSLRAEDTAVYYCARDPAYSQFDYWGQGTLITVSS VL: QSALTQPPSLSATPGQRVTISCSGSSSNVGGYPVNWYQQVPGAAPKLLMYTDYKRPSGVPDRFFGSKSGTSASLAISGLQSEDEADYYCATWDDNLNGYVFGTGTKVTVLG . Output its IC50 only.
5.25 nM

// Input: No. 8 anti-Ang2 antibody (IgG) (antibody, V domains shown, IgG form: VH cloned into Invivogen pfusess-hchg1, VL into Invivogen pfuse2ss-hclk; also called 3A10) VH: QVQLVESGGGLVKPGGSLRLSCAASGFTFSSYSMNWVRQAPGKGLEWVSSISASDGATYYADSVRGRFTISRDNSRSTLYLQMNSLRAEDTAVYYCAKILAGYSGPMGGMDVWGQGTTVTVSS VL: DIQMTQSPSSLSASVGDRVTITCRASRDISNYLAWYQQKPGKAPKSLIYGASNLQSGVSSQFSGSGSGTDFTLTINSLQPEDSATYYCQQYYSYPLTFGGGTKVDIKR . Output its IC50 only.
4.83 nM

// Input: No. 4 anti-Ang2 antibody (IgG) (antibody, V domains shown, IgG form: VH cloned into Invivogen pfusess-hchg1, VL into Invivogen pfuse2ss-hclk; also called 2D8) VH: QVQLVESGAEVKRPGESLRISCKTSGYSFTSYWIHWVRQMPGKELEWMGSIYPGNSDTRYSPSFQGHVTISADSSSSTAYLQWSSLKASDTAMYYCTTEGLMNGLHFDMWGQGTMVTVSS VL: DIVMTQTPLSLPVTPGEPASISCRSSQSLLHSLGDNYLDWYLQKPGQSPQLLIYLGSKRAAGVPDRFSGSGSGTDFTLKISRVEAEDVGVYYCMQSLQTPPYTFGQGTKLEIKR . Output its IC50 only.
4.54 nM

// Input: No. 3 anti-Ang2 antibody (IgG) (antibody, V domains shown, IgG form: VH cloned into Invivogen pfusess-hchg1 (heavy chain constant region), VL into Invivogen pfuse2ss-hclk (light chain constant region); Expressed in Expi293F, purified on Protein A; also called 1D10) VH: QMQLVQSGGGLVQPGRSLKLSCAASGFSFDDYAMHWVRQAPGKGLEWVATIKDDGSQTYYVDSVKGRFTISRDNAKSSLFLQMNSLRAEDTAVYYCTTEGLMNGLHFDMWGQGTMVTVSS VL: LVLTQPPSVSGAPGQGVTISCTGSSSNIGAGYDVHWYQQFPGTAPKLLISGNNNRPSGLPDRFSGSKSGTSASLAITGLQAEDEADYYCQSYDSRLGVVFGGGTKLTVLG . Output its IC50 only.
5.02 nM

Where these numbers come from: patent US20220204603A1
